# MEASURED TARGET: GST-TIE2 (intracellular domains of human TIE2) (Homo sapiens)
# ASSAY COMMENT: TIE-2 Enzyme Assay (TIE2-E), LANCE method
# APPLIED CONDITIONS: preactivated GST-TIE2, 1 μM D1-15 peptide, 80 uM ATP, 30 mins at room temperature; pIC50 = -log IC50 in Molar
pIC50: −log10 of the molar value.
The following compounds are shown together with reported pIC50 values.

Worked examples, 2 compounds total:
# MOL SMILES, ENDPOINT LABEL, VALUE REPORTED
records = [
    ("CCOc1cc(/C=N/Nc2ncnc3c2cnn3-c2ccccc2)cc(Br)c1O", "pIC50", "6.00 to 7.00"),
    ("O=C(O)c1cccc(/C=N/Nc2ncnc3c2cnn3-c2ccccc2)c1", "pIC50", "5.00 to 6.00"),
]

Query: Quick one: give measured pIC50 for CC(=O)Nc1ccc(/C=N/Nc2ncnc3c2cnn3-c2ccccc2)cc1
Reply: 6.00 to 7.00

Query: Quick one: give measured pIC50 for OCCOc1ccc(/C=N/Nc2ncnc3c2cnn3-c2ccccc2)cc1
Reply: 5.00 to 6.00

Query: Quick one: give measured pIC50 for COc1cc(/C=N/Nc2ncnc3c2cnn3-c2ccccc2)cc(C(=O)O)c1O
Reply: 5.00 to 6.00

###

# MEASURED TARGET: GST-TIE2 (intracellular domains of human TIE2) (Homo sapiens)
# ASSAY COMMENT: TIE-2 Enzyme Assay (TIE2-E), LANCE method
# APPLIED CONDITIONS: preactivated GST-TIE2, 1 μM D1-15 peptide, 80 uM ATP, 30 mins at room temperature; pIC50 = -log IC50 in Molar
ENDPOINT LABEL: IC50

# MOL SMILES, IC50
records = [
    ("O=C(NCCN1CCCC1)c1ccc(/C=N/Nc2ncnc3c2cnn3-c2ccccc2)cc1", "0.1 to 1 µM"),
    ("COc1cc(/C=N/Nc2ncnc3c2cnn3-c2ccccc2)ccc1O", "0.1 to 1 µM"),
    ("Fc1ccc(/C=N/Nc2ncnc3c2cnn3-c2ccccc2)cc1", "1 to 10 µM"),
    ("COc1ccc(/C=N/Nc2ncnc3c2cnn3-c2ccccc2)cc1OC", "0.1 to 1 µM"),
    ("CN(C)CCNC(=O)c1ccc(/C=N/Nc2ncnc3c2cnn3-c2ccccc2)cc1", "0.1 to 1 µM"),
]

Query: State, for GST-TIE2 (intracellular domains of human TIE2) (Homo sapiens), measured IC50 of the molecule listed here: COc1cc(/C=N/Nc2ncnc3c2cnn3-c2ccccc2)cc(Br)c1O
Reply: 0.1 to 1 µM

Query: State, for GST-TIE2 (intracellular domains of human TIE2) (Homo sapiens), measured IC50 of the molecule listed here: O=C(O)/C=C/c1ccc(/C=N/Nc2ncnc3c2cnn3-c2ccccc2)cc1
Reply: 0.1 to 1 µM

Query: State, for GST-TIE2 (intracellular domains of human TIE2) (Homo sapiens), measured IC50 of the molecule listed here: C(=NNc1ncnc2c1cnn2-c1ccccc1)c1cccnc1
Reply: 1 to 10 µM

Query: State, for GST-TIE2 (intracellular domains of human TIE2) (Homo sapiens), measured IC50 of the molecule listed here: O=C(NCCN1CCCCC1)c1ccc(/C=N/Nc2ncnc3c2cnn3-c2ccccc2)cc1
Reply: 0.1 to 1 µM

###

# MEASURED TARGET: GST-TIE2 (intracellular domains of human TIE2) (Homo sapiens, UniProt Q02763)
# Sequence (Q02763 762-1104): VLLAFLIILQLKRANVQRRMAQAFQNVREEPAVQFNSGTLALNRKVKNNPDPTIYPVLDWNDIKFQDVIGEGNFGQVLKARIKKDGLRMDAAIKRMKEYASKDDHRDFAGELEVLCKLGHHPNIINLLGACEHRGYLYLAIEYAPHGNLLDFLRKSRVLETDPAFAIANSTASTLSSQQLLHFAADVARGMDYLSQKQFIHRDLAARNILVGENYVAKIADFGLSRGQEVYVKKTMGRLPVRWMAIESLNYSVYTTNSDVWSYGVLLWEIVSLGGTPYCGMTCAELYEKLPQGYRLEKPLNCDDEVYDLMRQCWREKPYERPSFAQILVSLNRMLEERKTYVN
# ASSAY COMMENT: TIE-2 Enzyme Assay (TIE2-E), LANCE method
# APPLIED CONDITIONS: preactivated GST-TIE2, 1 μM D1-15 peptide, 80 uM ATP, 30 mins at room temperature; pIC50 = -log IC50 in Molar
The following compounds are shown together with reported IC50 values.

# MOL SMILES, ENDPOINT LABEL, VALUE REPORTED
measured = [
    ("[O-][n+]1ccc(/C=N/Nc2ncnc3c2cnn3-c2ccccc2)cc1", "IC50", "1000 to 10000 nM"),
    ("OCc1cc(/C=N/Nc2ncnc3c2cnn3-c2ccccc2)ccc1O", "IC50", "100 to 1000 nM"),
    ("CCN(CC)CCOc1ccc(/C=N/Nc2ncnc3c2cnn3-c2ccccc2)cc1", "IC50", "100 to 1000 nM"),
    ("NCCNC(=O)c1ccc(/C=N/Nc2ncnc3c2cnn3-c2ccccc2)cc1", "IC50", "1000 to 10000 nM"),
    ("COc1ccc(/C=N/Nc2ncnc3c2cnn3-c2ccccc2)cc1O", "IC50", "100 to 1000 nM"),
]

Please look at the following compound next.
Query: Quick one: give measured IC50 for Oc1cccc(/C=N/Nc2ncnc3c2cnn3-c2ccccc2)c1
Reply: 1000 to 10000 nM

###

The following compounds are shown together with reported IC50 values.
# MEASURED TARGET: GSK-3β (Homo sapiens, UniProt P49841)
# Sequence (P49841 whole entry, species assumed): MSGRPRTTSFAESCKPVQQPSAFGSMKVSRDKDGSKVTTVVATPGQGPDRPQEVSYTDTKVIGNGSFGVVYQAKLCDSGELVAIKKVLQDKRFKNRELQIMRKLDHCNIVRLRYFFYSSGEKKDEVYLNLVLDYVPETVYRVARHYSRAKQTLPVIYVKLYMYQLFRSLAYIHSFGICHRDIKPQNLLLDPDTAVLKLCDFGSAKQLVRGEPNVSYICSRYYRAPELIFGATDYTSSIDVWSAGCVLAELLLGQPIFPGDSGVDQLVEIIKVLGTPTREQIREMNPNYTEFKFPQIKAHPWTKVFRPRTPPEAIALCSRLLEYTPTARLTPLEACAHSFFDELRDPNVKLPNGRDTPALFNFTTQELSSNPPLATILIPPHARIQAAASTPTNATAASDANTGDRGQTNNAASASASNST
# ASSAY COMMENT: GSK3 scintillation proximity assay (SPA) kinase assay
# Assay type: biochemical
# APPLIED CONDITIONS: 20 nM kinase, 2.5 uM ATP, biotinylated glycogen synthase peptide, 40 minutes at room temperature; -log IC50 in Molar; read-out: GSK-3 pIC50 (converted)

Worked examples, 5 compounds total:
# COMPOUND, VALUE REPORTED
data = [
    ("Clc1ccc(/C=N/Nc2ncnc3c2cnn3-c2ccccc2)cn1 [Example 16]", "< 100 nM"),
    ("O=C(O)c1ccc(/C=N/Nc2ncnc3c2cnn3-c2ccccc2)cc1 [Example 24]", "100 to 1000 nM"),
    ("COc1cc(/C=N/Nc2ncnc3c2cnn3-c2ccccc2)ccn1 [Example 15]", "100 to 1000 nM"),
    ("Clc1cc(/C=N/Nc2ncnc3c2cnn3-c2ccccc2)ccn1 [Example 14]", "100 to 1000 nM"),
    ("CN(C)CCOc1ccc(/C=N/Nc2ncnc3c2cnn3-c2ccccc2)cn1 [Example 18]", "100 to 1000 nM"),
]

Query: Quick one: give measured IC50 for O=C(NCCCN1CCCC1)c1ccc(/C=N/Nc2ncnc3c2cnn3-c2ccccc2)cc1 [Example 26]
Reply: < 100 nM

Query: Quick one: give measured IC50 for CC(=O)Nc1ccc(/C=N/Nc2ncnc3c2cnn3-c2ccccc2)cn1 [Example 10]
Reply: < 100 nM

Query: Quick one: give measured IC50 for Fc1ccc(/C=N/Nc2ncnc3c2cnn3-c2ccccc2)cc1 [Example 50]
Reply: 100 to 1000 nM

Query: Quick one: give measured IC50 for CCN(CC)CCOc1ccc(/C=N/Nc2ncnc3c2cnn3-c2ccccc2)cc1 [Example 60]
Reply: 100 to 1000 nM

###

# MEASURED TARGET: GST-TIE2 (intracellular domains of human TIE2) (Homo sapiens, UniProt Q02763)
# ASSAY COMMENT: TIE-2 Enzyme Assay (TIE2-E), LANCE method
# APPLIED CONDITIONS: preactivated GST-TIE2, 1 μM D1-15 peptide, 80 uM ATP, 30 mins at room temperature; pIC50 = -log IC50 in Molar
pIC50: −log10 of the molar value.
The following molecules are shown together with reported pIC50 values.

Query: Quick one: give measured pIC50 for OCc1ccc(/C=N/Nc2ncnc3c2cnn3-c2ccccc2)o1 [Example 51]
Reply: 5.00 to 6.00

Query: Quick one: give measured pIC50 for CN1CCN(CCCNC(=O)c2ccc(/C=N/Nc3ncnc4c3cnn4-c3ccccc3)cc2)CC1 [Example 37]
Reply: 6.00 to 7.00

Query: Quick one: give measured pIC50 for COCCN1CCN(C(=O)c2ccc(/C=N/Nc3ncnc4c3cnn4-c3ccccc3)cc2)CC1 [Example 36]
Reply: 6.00 to 7.00

Query: Quick one: give measured pIC50 for OCCOc1cccc(/C=N/Nc2ncnc3c2cnn3-c2ccccc2)c1 [Example 5]
Reply: 6.00 to 7.00

Query: Quick one: give measured pIC50 for CCOc1cc(/C=N/Nc2ncnc3c2cnn3-c2ccccc2)ccc1O [Example 49]
Reply: 5.00 to 6.00

Query: Quick one: give measured pIC50 for O=C(NCCCN1CCCC1)c1ccc(/C=N/Nc2ncnc3c2cnn3-c2ccccc2)cc1 [Example 26]
Reply: 6.00 to 7.00

Query: Quick one: give measured pIC50 for O=C(NCCCN1CCOCC1)c1ccc(/C=N/Nc2ncnc3c2cnn3-c2ccccc2)cc1 [Example 27]
Reply: 6.00 to 7.00

Query: Quick one: give measured pIC50 for CN(C)CCN1CCN(C(=O)c2ccc(/C=N/Nc3ncnc4c3cnn4-c3ccccc3)cc2)CC1 [Example 35]
Reply: 6.00 to 7.00

###

# MEASURED TARGET: UniProtKB P49841
# ASSAY COMMENT: GSK3 scintillation proximity assay (SPA) kinase assay
# Assay type: biochemical
# APPLIED CONDITIONS: 20 nM kinase, 2.5 uM ATP, biotinylated glycogen synthase peptide, 40 minutes at room temperature; -log IC50 in Molar; read-out: GSK-3 pIC50 (converted)
Structures can show the parent of a compound that is named as a salt.
ENDPOINT LABEL: IC50

# MOLECULE, VALUE REPORTED
records = [
    ("O=S(=O)(NCCCN1CCCC1)c1ccc(/C=N/Nc2ncnc3c2cnn3-c2ccccc2)cc1", "< 100 nM"),
]

Query: Quick one: give measured IC50 for COc1ccc(/C=N/Nc2ncnc3c2cnn3-c2ccccc2)cc1O
Reply: 100 to 1000 nM

Query: Quick one: give measured IC50 for Nc1ccc(/C=N/Nc2ncnc3c2cnn3-c2ccccc2)cn1 [Example 12, trifluoroacetate]
Reply: 100 to 1000 nM

Query: Quick one: give measured IC50 for CCc1ccc(/C=N/Nc2ncnc3c2cnn3-c2ccccc2)o1
Reply: 1000 to 10000 nM
